Below, each entry is listed with its recorded pIC50.
# TARGET_OR_SYSTEM: IGF 3P (Homo sapiens)
# Construct: human IGF1R kinase domain residues M954-C1367; made in house; host or cells: baculovirus expression (insect cells)
# ASSAY_METHOD_TEXT: IGF1R kinase assay (LCCA), IGF 3P
# Type: biochemical
# STATED_CONDITIONS: IGF1R kinase LCCA assay
pIC50: −log10 of the molar value.

Here is how some compounds turned out for pIC50.
{"TEST_SMILES": "Brc1cnc(NCC2CCNCC2)nc1Nc1cc(C2CC2)n[nH]1", "MEASURED_VALUE": "5.30 to 6.30"}
{"TEST_SMILES": "Brc1cnc(NCc2ccco2)nc1Nc1cc(C2CC2)n[nH]1", "MEASURED_VALUE": "6.30 to 7.30"}
{"TEST_SMILES": "CCN(CC)CCNC(=O)CCc1ccc(Nc2ncc(Br)c(Nc3ccccc3)n2)cc1", "MEASURED_VALUE": "> 7.30"}

Let us move to another entry and its pIC50.
INPUT: Query (compound): CC(C)(C)OC(=O)N1CC[C@@H](NC(=O)c2ccc(Nc3ncc(Br)c(Nc4cc(C5CC5)n[nH]4)n3)cc2)C1 ; field requested: pIC50
OUTPUT: 6.30 to 7.30

----------
# TARGET_OR_SYSTEM: (Homo sapiens)
# Construct: human IGF1R kinase domain residues M954-C1367; made in house; host or cells: baculovirus expression (insect cells)
# Sequence (P08069 954-1367): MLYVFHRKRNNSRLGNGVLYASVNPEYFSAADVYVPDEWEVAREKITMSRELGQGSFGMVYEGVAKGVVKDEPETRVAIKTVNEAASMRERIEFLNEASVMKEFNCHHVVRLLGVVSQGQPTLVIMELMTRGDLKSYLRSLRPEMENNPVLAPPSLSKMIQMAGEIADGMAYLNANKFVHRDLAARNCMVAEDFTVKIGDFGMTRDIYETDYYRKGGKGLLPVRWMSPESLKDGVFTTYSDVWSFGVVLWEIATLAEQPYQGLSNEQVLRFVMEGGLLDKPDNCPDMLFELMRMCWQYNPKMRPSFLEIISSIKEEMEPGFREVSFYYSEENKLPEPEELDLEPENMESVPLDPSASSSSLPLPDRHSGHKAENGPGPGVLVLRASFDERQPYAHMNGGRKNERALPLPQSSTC
# ASSAY_METHOD_TEXT: IGF1R kinase assay (LCCA), IGF 0P
# Type: biochemical
# STATED_CONDITIONS: IGF1R kinase LCCA assay
QUANTITY: IC50

Here is how some compounds turned out for IC50.
{"COMPOUND": "Brc1cnc(NCC(c2ccccc2)c2ccccc2)nc1Nc1cc(C2CC2)[nH]n1", "QUANTITY": "IC50", "MEASURED_VALUE": "> 5 µM"}
{"COMPOUND": "COc1cc(CNc2ncc(Br)c(Nc3cc(C4CC4)[nH]n3)n2)cc(OC)c1", "QUANTITY": "IC50", "MEASURED_VALUE": "0.5 to 5 µM"}
{"COMPOUND": "Cc1ncc(CNc2ncc(Br)c(Nc3cc(C4CC4)[nH]n3)n2)s1", "QUANTITY": "IC50", "MEASURED_VALUE": "0.5 to 5 µM"}
{"COMPOUND": "Nc1ncnn1-c1nc(Nc2ccc(N3CCOCC3)cc2)ncc1Br", "QUANTITY": "IC50", "MEASURED_VALUE": "> 5 µM"}
{"COMPOUND": "CCCCNc1cc(C)nc(NCc2cc(-c3ccccc3)no2)n1", "QUANTITY": "IC50", "MEASURED_VALUE": "> 5 µM"}

INPUT: Query (compound): COc1cc(Nc2nc(C)cc(Nc3cc(C4CC4)n[nH]3)n2)cc(C(F)(F)F)c1 ; field requested: IC50
OUTPUT: > 5 µM

INPUT: Query (compound): CCN(CC)CCCNc1nc(Nc2cc(C3CC3)n[nH]2)c(Cl)c(Nc2ccccc2Cl)n1 ; field requested: IC50
OUTPUT: > 5 µM

INPUT: Query (compound): Cc1cc(Nc2ccccc2)nc(Nc2ccc(CCC(=O)NCCN3CCCC3)cc2)n1 ; field requested: IC50
OUTPUT: > 5 µM

INPUT: Query (compound): Cc1cc(Nc2cc(C3CC3)n[nH]2)nc(Nc2ccc3c(c2)CC(N)C3)n1 (stereo not drawn) ; field requested: IC50
OUTPUT: 0.5 to 5 µM

----------
# TARGET_OR_SYSTEM: (Homo sapiens)
# Construct: human IGF1R kinase domain residues M954-C1367; made in house; host or cells: baculovirus expression (insect cells)
# ASSAY_METHOD_TEXT: IGF1R kinase assay (LCCA), IGF 0P
# Assay type: biochemical
# Protocol: Kinase activity and compound inhibition are investigated using one or more of the three assay formats described below. The ATP concentrations for each assay are selected to be close to the Michaelis-Menten constant (KM) for each individual kinase. […] IGF1R kinase biochemical activity was assessed using a Luciferase-Coupled Chemiluminescent Kinase assay (LCCA) format. Kinase activity was measured as the percent ATP remaining following the kinase reaction. […]
QUANTITY: IC50

Here is how some compounds turned out for IC50.
{"COMPOUND": "Fc1ccc(-c2cc(CNc3nc(Nc4cc(C5CC5)n[nH]4)cc(OCCN4CCOCC4)n3)on2)cc1 [Example 606]", "IC50": "50 to 500 nM"}
{"COMPOUND": "c1ncc(-c2cc(CNc3nc(Nc4cc(C5CC5)n[nH]4)cc(N4CCOCC4)n3)on2)cn1 [Example 643]", "IC50": "50 to 500 nM"}
{"COMPOUND": "Cc1cc(Nc2cc(N3CCN(C)CC3)nc(NCc3cc(-c4ccccc4)no3)n2)[nH]n1 [Example 618]", "IC50": "50 to 500 nM"}
{"COMPOUND": "Cc1cc(Nc2cc(N3CCOCC3)nc(NCc3cc(C)no3)n2)[nH]n1 [Example 627]", "IC50": "500 to 5000 nM"}
{"COMPOUND": "Cc1cc(CNc2nc(Nc3cc(C4CC4)n[nH]3)cc(N3CCOCC3)n2)on1 [Example 601]", "IC50": "50 to 500 nM"}

Let us move to another entry and its IC50.
INPUT: Query (compound): Cc1cc(Nc2cc(C3CC3)[nH]n2)nc(OCc2cc(-c3ccccc3)no2)n1 [Example 584] ; field requested: IC50
OUTPUT: 50 to 500 nM

----------
# TARGET_OR_SYSTEM: IGF 3P (Homo sapiens)
# Construct: human IGF1R kinase domain residues M954-C1367; made in house; host or cells: baculovirus expression (insect cells)
# ASSAY_METHOD_TEXT: IGF1R kinase assay (LCCA), IGF 3P
# Type: biochemical
# STATED_CONDITIONS: IGF 3P
QUANTITY: IC50

INPUT: Query (molecule): CC(C)c1cc(CNc2nc(Nc3cc(C4CC4)[nH]n3)cc(N3C[C@H]4C[C@@H]3CN4Cc3ccccc3)n2)on1 [Example 636] ; field requested: IC50
OUTPUT: < 50 nM

----------
# TARGET_OR_SYSTEM: (Homo sapiens)
# Construct: human IGF1R kinase domain residues M954-C1367; made in house; host or cells: baculovirus expression (insect cells)
# ASSAY_METHOD_TEXT: IGF1R kinase assay (LCCA), IGF 0P
# Format: biochemical
# STATED_CONDITIONS: IGF1R kinase LCCA assay
pIC50: −log10 of the molar value.
Below, each entry is listed with its recorded pIC50.

Here is how some molecules turned out for pIC50.
{"MOLECULE": "FC(F)(F)c1cc(Nc2ncc(Br)c(Nc3cc(C4CC4)n[nH]3)n2)cc(C(F)(F)F)c1 [Example 304]", "pIC50": "< 5.30"}
{"MOLECULE": "Brc1cc(CNc2ncc(Br)c(Nc3cc(C4CC4)[nH]n3)n2)on1 [Example 72]", "pIC50": "5.30 to 6.30"}
{"MOLECULE": "Cc1cc(Nc2cc(C3CC3)n[nH]2)nc(Nc2ccc3cc(C(=O)NCCN4CCCC4)ccc3c2)n1 [Example 49]", "pIC50": "6.30 to 7.30"}

Let us move to another entry and its pIC50.
INPUT: Form: Entry = NS(=O)(=O)c1ccc(Nc2ncc(Br)c(Nc3cc(C4CC4)n[nH]3)n2)cc1 [Example 91] | System = (Homo sapiens) | pIC50 = ____
OUTPUT: 6.30 to 7.30

----------
# TARGET_OR_SYSTEM: IGF 3P (Homo sapiens, UniProt P08069)
# Construct: human IGF1R kinase domain residues M954-C1367; made in house; host or cells: baculovirus expression (insect cells)
# Sequence (P08069 954-1367): as above
# ASSAY_METHOD_TEXT: IGF1R kinase assay (LCCA), IGF 3P
# Format: biochemical
# STATED_CONDITIONS: IGF1R kinase LCCA assay
pIC50: −log10 of the molar value.
Below, each entry is listed with its recorded pIC50.

Here is how some compounds turned out for pIC50.
{"COMPOUND": "CC(C)(C)c1cc(Nc2nc(NCc3cc(-c4ccccc4)no3)ncc2Br)n[nH]1 [Example 16]", "MEASURED_VALUE": "5.30 to 6.30"}
{"COMPOUND": "Cc1cc(Nc2cc(C3CC3)[nH]n2)nc(NCc2cc(C3CCCCC3)no2)n1 [Example 82]", "MEASURED_VALUE": "6.30 to 7.30"}
{"COMPOUND": "Brc1cnc(Nc2ccccc2I)nc1Nc1cc(C2CC2)n[nH]1 [Example 96]", "MEASURED_VALUE": "6.30 to 7.30"}

INPUT: Query (compound): N#Cc1ccc(Nc2ncc(Cl)c(Nc3cc(C4CC4)[nH]n3)n2)cc1 [Example 117] ; field requested: pIC50
OUTPUT: 6.30 to 7.30

INPUT: Query (compound): Cc1ncc(CNc2ncc(Br)c(Nc3cc(C4CC4)[nH]n3)n2)s1 [Example 135] ; field requested: pIC50
OUTPUT: 6.30 to 7.30

INPUT: Query (compound): NC(=O)c1ccc(Oc2ncc(Br)c(Nc3cc(C4CC4)n[nH]3)n2)cc1 [Example 158] ; field requested: pIC50
OUTPUT: 5.30 to 6.30

INPUT: Query (compound): CCN(CC)CCCNc1cc(Nc2cc(C(C)C)[nH]n2)nc(NCc2cc(-c3ccccc3)no2)n1 [Example 495] ; field requested: pIC50
OUTPUT: > 7.30
